MEASUREMENT TARGET: T1, human CD96v2 expressed on cells (CHO cells; transiently transfected HEK cells) (human, UniProt P40200-2 22-569)
T1 construct: whole, on cells; the cell is named under assay; also called CHO-huCD96; hCD96v2
T1 sequence (looked up): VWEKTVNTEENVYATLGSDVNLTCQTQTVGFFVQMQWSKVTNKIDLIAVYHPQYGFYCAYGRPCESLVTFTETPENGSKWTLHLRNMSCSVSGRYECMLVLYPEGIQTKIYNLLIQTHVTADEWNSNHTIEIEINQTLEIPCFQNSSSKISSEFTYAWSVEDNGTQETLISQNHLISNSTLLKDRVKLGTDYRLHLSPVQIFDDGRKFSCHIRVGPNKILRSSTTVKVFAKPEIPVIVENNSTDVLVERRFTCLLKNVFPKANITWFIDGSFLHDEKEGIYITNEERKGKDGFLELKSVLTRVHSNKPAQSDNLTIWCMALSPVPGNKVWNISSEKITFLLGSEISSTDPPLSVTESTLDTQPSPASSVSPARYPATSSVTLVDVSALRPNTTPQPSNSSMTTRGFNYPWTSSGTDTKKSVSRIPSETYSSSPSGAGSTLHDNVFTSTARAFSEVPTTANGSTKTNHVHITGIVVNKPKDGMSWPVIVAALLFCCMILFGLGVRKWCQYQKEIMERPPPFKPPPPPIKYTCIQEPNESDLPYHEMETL
ASSAY DETAILS: flow cytometry on CHO cells expressing human CD96v2
Items are presented alongside their recorded EC50.
Field format: number, assumed nM, no unit text.

Query string: Which EC50 is listed for 42Y073-1A01-85 (antibody, V domains shown, Fully human antibody) VH: QVQLVQSGAEVKKPGASVKVSCKASGYTFTSYPMHWVRQAPGQGLEWMGIINPSGGFTSYAQKFQGRVTMTRDTSTSTVYMELSSLRSEDTAVYYCARETAYYTTKGNWFDPWGQGTLVTVSA VL: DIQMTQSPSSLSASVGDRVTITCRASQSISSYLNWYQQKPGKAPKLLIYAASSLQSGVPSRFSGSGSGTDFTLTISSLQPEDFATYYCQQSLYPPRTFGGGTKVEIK ?
Result string: 0.47

Query string: Moving on to 42Y073-1A01-100 (antibody, V domains shown, Fully human antibody) VH: QVQLVQSGAEVKKPGASVKVSCKASGYTFTTYRMHWVRQAPGQGLEWMGIINPSGGLTQYAQKFQGRVTMTRDTSTSTVYMELSSLRSEDTAVYYCARETAYYTTKGNWFDPWGQGTLVTVSS VL: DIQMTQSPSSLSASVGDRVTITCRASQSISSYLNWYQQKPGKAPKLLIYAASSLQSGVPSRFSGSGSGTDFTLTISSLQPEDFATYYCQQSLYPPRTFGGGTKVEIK
Result string: 0.02

Query string: How about 42Y073-86F04-3 (antibody, V domains shown, Fully human antibody) VH: QVQLVQSGAEVKKPGSSVKVSCKASGGTFSYNAISWVRQAPGQGLEWMGGIIPIMGTARYAQKFQGRVTITADESTSTAYMELSSLRSEDTAVYYCARLLGESGMDVWGQGTTVTVSS VL: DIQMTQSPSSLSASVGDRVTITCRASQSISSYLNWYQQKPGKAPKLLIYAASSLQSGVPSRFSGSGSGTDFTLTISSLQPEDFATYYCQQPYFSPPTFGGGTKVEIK ?
Result string: 0.04

Where these numbers come from: patent US12528864
